Values were extracted from patent US20210278408A1.

# System: 406 cancer cell lines, 73 blood tumor cell lines and 333 solid tumor cell lines
# assay.comment: OmniScreen drug efficacy on cancer cell lines, fitted area under curve (AUC) of dose-response
# Type: cell-based
# condition.context: Homo sapiens, OVCAR-8, OVCAR-8, Ovary
quantity.kind: IC50 (µM)
Numbers only, in µM.

Query: What does the record list as IC50 for Cc1nn(-c2nc(-c3ccc(C(F)(F)F)cc3)c(SC(C)C)s2)c(C(=O)O)c1-c1cccc(F)c1 ?
Reply: 1.02
